System: human EP3 receptor (Homo sapiens)
Sequence (P43115 whole entry): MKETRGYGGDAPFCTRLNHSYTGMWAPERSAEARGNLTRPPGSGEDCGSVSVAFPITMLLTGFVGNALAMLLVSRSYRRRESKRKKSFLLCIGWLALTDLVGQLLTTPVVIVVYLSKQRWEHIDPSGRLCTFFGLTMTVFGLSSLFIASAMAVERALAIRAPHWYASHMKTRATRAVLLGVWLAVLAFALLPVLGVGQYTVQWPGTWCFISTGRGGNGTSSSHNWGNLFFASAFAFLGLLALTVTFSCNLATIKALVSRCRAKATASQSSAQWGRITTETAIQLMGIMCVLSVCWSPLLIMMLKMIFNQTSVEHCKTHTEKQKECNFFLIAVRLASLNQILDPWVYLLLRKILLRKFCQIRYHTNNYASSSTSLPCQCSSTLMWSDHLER
Measurement notes: Cellular in vitro assay for determining EP3 receptor activity (human EP3 cell line, sulprostone-stimulated calcium luminescence)
Condition: CHO cells expressing human EP3 and mitochondrial Clytin; antagonist mode, sulprostone at EC50; read-out: EP3 CHO mtCLY ANTAG IC50
pIC50: −log10 of the molar value.
Experimental readout: pIC50

Examples with answers:
# Compound, Experimental readout, Experimental value
records = [
    ("Cc1ccc(-c2cn3nc(C(=O)N[C@@]4(C)CCS(=O)(=O)C4)c(C4CC4)c3c(=O)[nH]2)cc1F (racemic)", "pIC50", 8.29),
    ("CC(NC(=O)c1cc2c(=O)[nH]c(-c3ccc4ccccc4c3)cn2n1)c1ccccc1OC(F)F (stereo not shown)", "pIC50", 8.94),
]

I. CC(C)C(NC(=O)c1cc2c(=O)[nH]c(-c3ccc4ccccc4c3)cn2n1)c1cccs1 (stereo not shown)
II. Cc1ccc(-c2cn3nc(C(=O)NCC(O)C(F)(F)F)c(C)c3c(=O)[nH]2)cc1F (racemic) [6-409]
III. COc1ccc(C(C)NC(=O)c2nn3cc(-c4cnc5cccc(C)c5c4)[nH]c(=O)c3c2C(C)C)cn1 (stereo not shown)
List the 3 entries from lowest pIC50 to highest pIC50 value. I'd appreciate it if you listed the labels in the requested order.
II, I, III
(II: 8.15, I: 8.69, III: 8.94)

P. Cc1cc(CNC(=O)c2nn3c(C)c(-c4ccc5ccccc5c4)[nH]c(=O)c3c2C)on1
Q. CN1CC(NC(=O)c2cc3c(=O)[nH]c(-c4ccc5c(c4)CCC5)cn3n2)(c2ccc(F)cc2)C1
Between P and Q , whose measured pIC50 reads higher? // respond with label for picked entry
Q
